target-system: T1, BICD2_(1–98) (human, UniProt Q8TD16-1 1-98)
T1 chain: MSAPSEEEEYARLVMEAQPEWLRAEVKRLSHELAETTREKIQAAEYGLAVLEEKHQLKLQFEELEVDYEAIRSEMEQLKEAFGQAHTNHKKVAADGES
method-summary: ITC; second site (KD2), 30°C
assay-endpoint: Kd (µM)

{"columns": ["binder", "assay-endpoint", "experimental-value"],
 "data": [
  ["NMKAGATSEGVLANFFNSLLSKKTGS [LIC1_(433–458)]", "Kd", 7.5]
]}
